# Measurement target: human OX2R (Homo sapiens)
# Test protocol: Evaluation of OX2R agonist activity (intracellular calcium, CHO-K1 cells with forced expression of human OX2R)
# Experimental context: CHO-K1 cells expressing human OX2R; 100% = 5 µM of the reference compound; read-out: hOX2R EC50
Measured endpoint: EC50 (µM)
Numbers only; they are read as µM.

Return reported EC50; argument: `C[C@@H](O)C(=O)N1C2CC(C2)[C@H](NS(C)(=O)=O)[C@@H]1Cc1cccc(-c2cccc3c2OC(F)(F)O3)c1F`
0.068

# EC50 lookup, item `[2H][C@](C)(O)C(=O)N1C2CC(C2)[C@H](NS(C)(=O)=O)[C@@H]1Cc1cc(F)cc(-c2ccccc2)c1F`
0.036

EC50 lookup needed for `[2H]C([2H])([2H])[C@@]([2H])(O)C(=O)N1C2CC(C2)[C@H](NS(=O)(=O)CC)[C@@H]1Cc1cccc(-c2ccccc2)c1F` , thanks.
0.022

Would you kindly share the measured EC50 for `CS(=O)(=O)N[C@H]1C2CC(C2)N(C(=O)[C@H](O)C2CC2)[C@H]1Cc1cccc(-c2ccccc2)c1F` ?
0.041

Could you tell me which EC50 is on file for `CS(=O)(=O)N[C@H]1C2CC(C2)N(C(=O)C2(F)CC2)[C@H]1Cc1cccc(-c2cc(F)cc(F)c2)c1F` ?
0.38

Fill in the blank: the reported EC50 of CS(=O)(=O)NC1C2CC(C2)N(C(=O)C2CC2)C1Cc1ccnc(-c2cccc(Cl)c2)c1F (single isomer, unassigned) is ____.
0.075

Param item = `[2H][C@](C)(O)C(=O)N1C2CC(C2)[C@H](NS(C)(=O)=O)[C@@H]1Cc1cccc(-c2ccccc2)c1F` ; retrieve measured EC50.
0.021

Fill in: EC50 of `CS(=O)(=O)N[C@@H]1[C@H](Cc2cccc(-c3ccccc3)c2F)N(C(=O)C2(O)CC2)C2CC1(F)C2` is ___
0.039

Can you look up the measured EC50 of `CC[C@@H](O)C(=O)N1C2CC(C2)[C@H](NS(C)(=O)=O)[C@@H]1Cc1cccc(-c2cc(F)cc(F)c2)c1F` for me?
0.035

So what does the record say about EC50 for `C[C@@H](O)C(=O)N1C2CC(C2)[C@H](NS(C)(=O)=O)[C@@H]1Cc1cccc(-c2cccc(C3CC3)c2)c1F` ?
0.031

Find the recorded EC50 belonging to `[2H]C([2H])([2H])[C@@]([2H])(O)C(=O)N1C2CC(F)(C2)[C@H](NS(C)(=O)=O)[C@@H]1Cc1cc(F)cc(-c2ccccc2)c1F` and report it.
0.03

Which EC50 value is on record for `CO[C@H](C)C(=O)N1C2CC(C2)[C@H](NS(C)(=O)=O)[C@@H]1Cc1cccc(-c2cc(F)cc(F)c2)c1F` ?
0.033

Value lookup for EC50; key = CC(C)(O)C(=O)N1C2CC(F)(C2)C(NS(C)(=O)=O)C1Cc1cccc(-c2cccc(Cl)c2)c1F (single isomer, unassigned)
0.04

====

# Measurement target: human OX2R (Homo sapiens, UniProt O43614)
# Sequence (O43614 whole entry): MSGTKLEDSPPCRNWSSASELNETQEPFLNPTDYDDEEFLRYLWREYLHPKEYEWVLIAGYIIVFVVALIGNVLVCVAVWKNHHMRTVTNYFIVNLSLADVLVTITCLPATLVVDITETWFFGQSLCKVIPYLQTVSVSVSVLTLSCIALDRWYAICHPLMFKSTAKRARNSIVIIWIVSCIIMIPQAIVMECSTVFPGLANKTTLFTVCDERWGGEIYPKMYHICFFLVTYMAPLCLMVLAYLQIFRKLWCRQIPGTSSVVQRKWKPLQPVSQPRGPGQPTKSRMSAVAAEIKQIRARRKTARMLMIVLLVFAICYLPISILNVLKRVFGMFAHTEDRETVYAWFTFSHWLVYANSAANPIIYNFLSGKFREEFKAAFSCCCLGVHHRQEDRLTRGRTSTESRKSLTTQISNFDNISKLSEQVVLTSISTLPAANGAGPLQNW
# Test protocol: Evaluation of OX2R agonist activity (intracellular calcium, CHO-K1 cells with forced expression of human OX2R)
# Experimental context: CHO-K1 cells expressing human OX2R; 100% = 5 µM of the reference compound; read-out: hOX2R EC50
Assignment: determine reported pEC50 for the given compounds.
Lab note: report pEC50 as minus log10 of the concentration in molar units, number only.

Any idea what pEC50 was measured for C[C@@H](O)C(=O)N1C2CC(C2)[C@H](NS(C)(=O)=O)[C@@H]1Cc1cccc(-c2cccc(F)c2)c1F [Example 40] ?
7.31

Fill in the blank: the reported pEC50 of [2H]C([2H])([2H])[C@@]([2H])(O)C(=O)N1C2CC(C2)[C@H](NS(C)(=O)=O)[C@@H]1Cc1cc(F)cc(-c2ccccc2)c1F [Example 88] is ____.
7.37

Field request: pEC50 | item: CC(C)(O)C(=O)N1C2CC(F)(C2)[C@H](NS(C)(=O)=O)[C@@H]1Cc1cccc(-c2cccc(C(F)F)c2)c1F [Example 49]
7.70

Could you tell me which pEC50 is on file for C[C@@H](O)C(=O)N1C2CC(C2)[C@H](NS(C)(=O)=O)[C@@H]1Cc1cccc(-c2ccn(C)n2)c1F [Example 32] ?
6.27

Would you mind telling me what pEC50 value was observed for C=CS(=O)(=O)NC1C(Cc2cc(F)cc(-c3ccccc3)c2F)N(C(=O)[C@@H](C)O)C2CC1(F)C2 (single isomer, unassigned) [Example 96] ?
8.00

So what does the record say about pEC50 for CC(C(=O)N1C2CC(C2)[C@H](NS(C)(=O)=O)[C@@H]1Cc1cccc(-c2ccccc2)c1F)n1cccn1 (stereo partly drawn) [Example 93] ?
7.64
